# Tested on: chymase
# experiment notes: purified rat brain chymase
# measurement conditions: 37°C
measured quantity: cleaved bond

substance=MeOSuc-Ala-Ala-Pro-Met-pNa measured_quantity="cleaved bond" value_measured=Met-pNa
substance=MeOSuc-Glu-Val-Lys-Phe-pNa measured_quantity="cleaved bond" value_measured=Phe-pNa
substance=MeOSuc-Glu-Val-Lys-Met-pNa measured_quantity="cleaved bond" value_measured=Met-pNa
substance=Suc-Ala-Ala-Pro-Phe-pNa measured_quantity="cleaved bond" value_measured=Phe-pNa

* * *

# tested target: chymase (Rattus norvegicus, UniProt P09650)
# Construct: Starting from 18g rat brain, approximately 10µg homogeneous chymase was obtained; from tissue; host or cells: rat forebrain (5-7 day old pups)
# Sequence (P09650 21-260): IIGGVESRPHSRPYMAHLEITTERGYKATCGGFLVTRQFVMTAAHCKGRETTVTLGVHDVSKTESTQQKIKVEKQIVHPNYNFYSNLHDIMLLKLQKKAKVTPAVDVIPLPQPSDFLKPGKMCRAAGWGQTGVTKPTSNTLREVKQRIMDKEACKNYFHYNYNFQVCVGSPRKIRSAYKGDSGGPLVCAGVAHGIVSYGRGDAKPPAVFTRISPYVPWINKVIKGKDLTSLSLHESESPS
# experiment notes: Inhibition of purified brain chymase (pNa substrate hydrolysis)
# Format: biochemical
# measurement conditions: Ki
pKi: −log10 of the molar value. Peptide text beside a SMILES is read from it. * marks the point of attachment. MeOSuc = COC(=O)CCC(=O)*; CH2Cl = ClC*
measured quantity: pKi

compound="COC(=O)CCC(=O)N[C@@H](CCC(=O)O)C(=O)N[C@H](C(=O)N[C@@H](CCCCN)C(=O)N[C@@H](Cc1ccccc1)C(=O)CCl)C(C)C (MeOSuc-EVKF-CH2Cl)" value_measured="> 7.70"

Each recorded value in this set is attributed to patent EP0732399A2.
